# System: K4 kissing-loop RNA reporter;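 also: bound reporter read as fluorescence of individual clusters on recovered sequencing chips by microscopy, with normalized cluster intensities fitted with a binding model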
# Experimental details: apparent KD of K4 kissing-loop reporter; higher = weaker reporter binding
# Measurement conditions: Eterna round: R107; input ligand: none
Endpoint: apparent KD of K4 kissing-loop reporter (nM)
The figure you give is taken to be in nM; do not add the unit.

{"Residue sequence": "CGCAGUGAUGUUGCUAUUAUUCUUGAUUAACGAGGACCGGUACGGCCGCCACUCGAUUUCUAUCUUAUUUUGUGUUAUGUUGAUU [JR_ExcTryptoA_Sub008]", "apparent KD of K4 kissing-loop reporter [nM]": 333}
{"Residue sequence": "GGACAAGUUUCCGAUACCAGCCUUUAUGCUGGACUAGCUUGAUCAGUGGCUAGUGAUGUUGGCCCUUGGCAGCGGGACUCUUCGG [theeternabot_exclusion_KL_Theo_B_10]", "apparent KD of K4 kissing-loop reporter [nM]": 217}
{"Residue sequence": "AACUGGGUUCGUGAUACCAGCUCACACAUGAGUGAUGUUCAUGUAGUGGGCAAAAUGUGGAGCCCUUGGCAGCACUGUGACCACG [XTheo-B2]", "apparent KD of K4 kissing-loop reporter [nM]": 77}
{"Residue sequence": "CGAGUGAUGUUCGUUCGUAUAUUUGGGUGACAGGAUAUGCGGAAACGCAGAAGGGUCGCCUUCGGGUUACCCGAAUUGGCGUUUU [FMN A Model 2]", "apparent KD of K4 kissing-loop reporter [nM]": 546}

Tell me the measured apparent KD of K4 kissing-loop reporter of GCAGUGAUGUUGCGGAUGUACAGUGGAGUGCGAGGACCGGUACGGCCGCCACUCGUACAGAACAAGCUAAUACAUCGAUAGGUGA [XI] , please.
461

Tell me the measured apparent KD of K4 kissing-loop reporter of ACAGGAUCGAAGAUCCUGAGCAGUCAGGUCCGAGGACCGGUACGGCCGCCACUCGGAGUGAUGUUCCGAAGACUGCAAAAUAAAA [#SwitchBubble 4] , please.
1110

Tell me the measured apparent KD of K4 kissing-loop reporter of UGCAUGUGAAACAUGUAGGUGCUAGGUGAAGGAGCGAUCGAAAGAUCAGGUAGGUCGCACCUUCCUGAGUGAUGUUCAGGUAAUA [KL-SSArg-A2] , please.
47.7

Tell me the measured apparent KD of K4 kissing-loop reporter of UUUAGAUGAAGUGAUACCAGACUUGAAAGUGAUGUUUUCCAAUAAUUUAAAUUAUUAGCUGUCCCUUGGCAGCACAGUUUAUUUA [JR_ExcTheophyB_Sub008] , please.
282

Tell me the measured apparent KD of K4 kissing-loop reporter of CAUAGGAAACUAUGUAUCUCUCUUACUGAAGGAGCGCGUGAAAACGCAGGUAGGUCGCAGAAUUUAAUAGAGAGUGAUGUUCUCU [Ex Arginine A K4 7] , please.
254

Tell me the measured apparent KD of K4 kissing-loop reporter of UGAUACCAGACUGAUACCAGCCACAGAGUCAAAGACUCUGAAAAGGAAACCAGUGAUGUUGGCCCUUGGCAGCAGUCUGGUAUCU [TheoBX 15 #SwitchBubble #StaticStem] , please.
171

Tell me the measured apparent KD of K4 kissing-loop reporter of CAUAGGAAACUAUGUAUCUCUCCGACUGAAGGAGCGCGUGAAAACGCAGGUAGGUCGCAGAAUUUAACGGAGAGUGAUGUUCUCU [Ex Arginine A K4 10] , please.
338

Tell me the measured apparent KD of K4 kissing-loop reporter of AGGCGACGCAAAGGAUAUCACGGUUUUCUAGUGAUGUUAGUCAAGACCGACCGAGAAAUCAGUGUUUGAGAAGGUUGAACGUCGC [theeternabot_sameState_KL_FMN_B_46] , please.
1870
